- procedure text: Selectivity ratio of IC50 for OX1R to IC50 for OX2R

# molecule, Ratio IC50
records = [
    ("O=S(=O)(c1ccccc1)N1CCOC12CCN(c1cnc3ccccc3n1)CC2", 7),
    ("O=C(Nc1ccccc1)N1CCC2(OCCN2S(=O)(=O)c2ccccc2)[C@@H](F)C1 (mixture of isomers)", 11),
    ("COc1ccc(S(=O)(=O)N2CCOC23CCN(C(=O)Nc2ccccc2)CC3F)cc1OC (stereo not drawn)", 450),
]

* * *

Overview of reported solubility across a group of compounds:
- procedure text: Solubility of the compound in stomach simulated fluid JP1
- Assay type: physicochemical
reported metric: solubility (µg/mL)

# compound, reported metric, sign qualifier, reported measurement
measured = [
    ("O=C(Nc1ccccc1)N1CCC2(OCCN2S(=O)(=O)c2ccccc2)[C@H](F)C1 (mixture of isomers)", "solubility", "=", 45000),
    ("O=C(Nc1ccccc1)N1CCC2(OCCN2S(=O)(=O)c2ccccc2)[C@@H](F)C1 (mixture of isomers)", "solubility", "=", 8500),
    ("O=C(Nc1ccccc1)N1CCC2(CC1)OCCN2S(=O)(=O)c1ccccc1", "solubility", "<", 70),
    ("O=C(Nc1ccccc1)N1CCC2(OCCN2S(=O)(=O)c2ccccc2)C(F)(F)C1 (racemic)", "solubility", "=", 21000),
    ("COc1ccc(S(=O)(=O)N2CCOC23CCN(C(=O)Nc2ccccc2)CC3F)cc1OC (configuration not stated)", "solubility", "=", 5900),
    ("COc1cccc(S(=O)(=O)N2CCOC23CCN(C(=O)Nc2ccccc2)CC3F)c1 (racemic)", "solubility", "=", 2100),
    ("COc1ccc(S(=O)(=O)N2CCOC23CCN(C(=O)Nc2ccccc2)CC3F)cc1 (racemic)", "solubility", "=", 490),
]
